test system: M19-MEL melanoma; experiment: NCI tumour cell line growth inhibition, 48 h
parameter-measured: TGI

Sample answers from the record:
[
  {
    "molecule": "O=C(c1ccc(Cl)cc1)c1ccc(OCCSCCCCCCCCCCSCCOc2ccc(C(=O)c3ccc(Cl)cc3)cc2)cc1",
    "target-or-test-system": "M19-MEL melanoma",
    "TGI": "> 100 µM"
  },
  {
    "molecule": "CC1C(=O)O[C@H]2C1CC[C@@]1(C)[C@H](O)CC[C@@]13C[C@]2(O)OO3 (stereo not given in full)",
    "target-or-test-system": "M19-MEL melanoma",
    "TGI": "> 100 µM"
  },
  {
    "molecule": "CCOC(=O)/C(=C\\c1ccc[nH]1)C(=O)c1ccccc1",
    "target-or-test-system": "M19-MEL melanoma",
    "TGI": "> 100 µM"
  }
]

# lookup: COc1ccc(OC)c2c(=S)c3ccccc3[nH]c12 on M19-MEL melanoma, TGI = > 100 µM

# lookup: N#C/C(=C\c1ccc(C(O)P(=O)(O)O)cc1)C(N)=O (stereo not given) on M19-MEL melanoma, TGI = > 100 µM

# lookup: Cn1cnc([N+](=O)[O-])c1Sc1nnnn1-c1ccccc1 on M19-MEL melanoma, TGI = 24.4 µM

# lookup: CC(C)CN(CC(C)C)C(=O)C1CCCC[C@@H]1C(=O)O (stereo not given in full) on M19-MEL melanoma, TGI = > 100 µM

# lookup: Cc1c2c(cc3c(=O)ccn(CCN(C)C)c13)c(=O)ccn2CCN(C)C on M19-MEL melanoma, TGI = 30.2 µM

# lookup: Cc1ccc(Oc2ccc([N+](=O)[O-])cc2[N+](=O)[O-])c(C)c1 on M19-MEL melanoma, TGI = > 100 µM

# lookup: NNC(=O)/C(NC(=O)c1ccccc1)=C(\N)c1ccc(Cl)cc1 on M19-MEL melanoma, TGI = > 100 µM

# lookup: COc1cc(C2c3cc4c(cc3[C@@H](Nc3cccc([N+](=O)[O-])c3)C3COC(=O)[C@H]23)OCO4)cc(OC)c1O (stereo not given in full) on M19-MEL melanoma, TGI = > 100 µM
